Measured target: KOR (Homo sapiens, UniProt P41145)
Construct: expressed in transfected cells; host or cells: CHO (Chinese hamster ovary) cell line, membrane preparation
Sequence (P41145 whole entry): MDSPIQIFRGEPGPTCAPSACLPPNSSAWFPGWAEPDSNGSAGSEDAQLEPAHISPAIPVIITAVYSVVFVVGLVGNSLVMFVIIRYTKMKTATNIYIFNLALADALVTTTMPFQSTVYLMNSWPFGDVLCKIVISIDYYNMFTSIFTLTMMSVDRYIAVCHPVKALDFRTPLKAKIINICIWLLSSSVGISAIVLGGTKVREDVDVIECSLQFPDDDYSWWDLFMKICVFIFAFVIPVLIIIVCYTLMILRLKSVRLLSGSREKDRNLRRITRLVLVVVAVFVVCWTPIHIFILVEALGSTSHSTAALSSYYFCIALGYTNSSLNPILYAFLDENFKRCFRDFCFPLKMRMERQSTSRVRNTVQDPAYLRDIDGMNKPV
Type: binding
Protocol conditions: n=3; read-out: Ki ± SEM [3H]norBNI (κ)
pKi: −log10 of the molar value.
Measurement name: pKi

Molecule: COC(=O)/C=C/C(=O)N[C@@H]1CC[C@@]2(O)[C@H]3Cc4ccc(O)c5c4[C@@]2(CCN3CC2CC2)[C@H]1O5 [β-FNA, β-funaltrexamine]
Val: 9.03
